- Tested on: Musca domestica, susceptible strain WHO(N)
- Test details: Contact efficacy against houseflies on filter papers in glass dishes
- Format: in vivo
- Condition description: 6 h; % a.i. conc. in acetone on filter papers; Table 97
Property label: % knock down after
Could you give the number and then its unit, please?

Some entries whose results are on file:
# Compound, Property label, Value measured
data = [
    ("CC1(C)[C@H](C(=O)O[C@H](C#N)c2cccc(Oc3ccccc3)c2)[C@@H]1C=C(Br)Br [0.00032% DTM]", "% knock down after", "60%"),
    ("CC1(C)C(C=C(Br)Br)C1C(=O)OC(C#N)c1cccc(Oc2ccccc2)c1 (centres unmarked) [0.0016% DTM]", "% knock down after", "100%"),
    ("CC1(C)[C@H](C(=O)O[C@H](C#N)c2cccc(Oc3ccccc3)c2)[C@@H]1C=C(Br)Br [0.000064% DTM]", "% knock down after", "15%"),
    ("CC1(C)[C@H](C(=O)O[C@H](C#N)c2cccc(Oc3ccccc3)c2)[C@@H]1C=C(Br)Br [0.0000128% DTM]", "% knock down after", "15%"),
]

Kindly review the next compound as well.
(Q) What measured % knock down after goes with Cc1ccc(O)c(-n2nc3ccccc3n2)c1 [0.5% Compound B] ?
(A) 0%

---

Task for the reader: assign each of the following molecules its reported % KD and Mortality.
- Tested on: tropical house mosquito Culex quinquefasciatus (adults, 3 days old)
- Test details: Efficacy of formulations on surfaces (glazed/unglazed tiles, plywood), ten 3 day old mosquitoes, 3 min exposure
- Assay type: in vivo
- Condition description: 1 h; in acetone on glazed tiles; Table 84
- Description: The ingredients were diluted in acetone to give a concentration which corresponds to the desired quantity of a.i./m^2. A 1 ml quantity of the solution was applied by pipette onto the 15 cm×15 cm surfaces without treating the outer edge of 1 cm. […] Each test consisted of three replicates (three batches of ten mosquitoes were exposed for three minutes to the same surface, each one hour later), of which the mean values are calculated. […]
Give bare numbers, in %.

# Molecule, % KD and Mortality, %
records = [
    ("CNC(=O)Oc1cccc2c1OC(C)(C)O2 [0.1% bendiocarb]", 50),
    ("COC(=O)CCCCCCCCC(=O)OC [1% Dimethyl sebacate]", 0),
    ("CCCCCCCCON1C(C)(C)CC(OC(=O)CCCCCCCCC(=O)OC2CC(C)(C)N(OCCCCCCCC)C(C)(C)C2)CC1(C)C", 3),
    ("O=C(CCCCCCCCC(=O)OCc1ccccc1)OCc1ccccc1 [1% Sebacic acid dibenzyl ester]", 0),
]

(Q) What measured % KD and Mortality goes with O=C(CCCCCCCCC(=O)ON1C(=O)CCC1=O)ON1C(=O)CCC1=O ?
(A) 0

---

- Test system: tropical house mosquito Culex quinquefasciatus (adults, 3 days old)
- Test details: Efficacy of formulations on surfaces (glazed/unglazed tiles, plywood), ten 3 day old mosquitoes, 3 min exposure
- Type: in vivo
- Condition description: 15′; in acetone on glazed tiles; Table 84
- Experimental: The ingredients were diluted in acetone to give a concentration which corresponds to the desired quantity of a.i./m^2. A 1 ml quantity of the solution was applied by pipette onto the 15 cm×15 cm surfaces without treating the outer edge of 1 cm. […] Each test consisted of three replicates (three batches of ten mosquitoes were exposed for three minutes to the same surface, each one hour later), of which the mean values are calculated. […]
Task for the reader: assign each of the following compounds its reported % KD and Mortality.
Answers are plain numbers, in %.

Some entries whose results are on file:
# Record smiles, Value measured
measured = [
    ("CC1(C)CC(O)CC(C)(C)N1[O]", 0),
    ("CC1(C)CC(O)CC(C)(C)N1", 0),
]

Kindly review the next compound as well.
(Q) % KD and Mortality of CC1(C)CC(OC(=O)CCCCCCCCC(=O)OC2CC(C)(C)NC(C)(C)C2)CC(C)(C)N1 on tropical house mosquito Culex quinquefasciatus (adults, 3 days old)?
(A) 0
